These measurements were taken from patent US20230357348A1.

Quick reference for hGluc-R EC50 (pM) among some binders
molecular target: human glucagon receptor (hGCGR) (human, UniProt P47871 26-477); assay: cell-based or functional assay
Sequence (P47871 26-477): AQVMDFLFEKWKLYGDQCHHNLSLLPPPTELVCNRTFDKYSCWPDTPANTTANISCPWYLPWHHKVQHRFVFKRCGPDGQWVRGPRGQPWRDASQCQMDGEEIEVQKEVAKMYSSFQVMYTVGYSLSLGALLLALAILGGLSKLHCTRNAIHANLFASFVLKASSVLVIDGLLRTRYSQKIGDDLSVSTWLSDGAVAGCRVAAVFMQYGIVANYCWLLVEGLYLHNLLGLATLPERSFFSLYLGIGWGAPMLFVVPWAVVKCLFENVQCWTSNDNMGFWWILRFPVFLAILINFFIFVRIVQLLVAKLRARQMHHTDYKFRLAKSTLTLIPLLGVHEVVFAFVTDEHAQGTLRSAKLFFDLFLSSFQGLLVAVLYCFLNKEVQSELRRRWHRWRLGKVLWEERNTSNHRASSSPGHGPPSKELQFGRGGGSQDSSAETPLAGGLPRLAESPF
Starred links: 1 amine or outer side, 2 acyl side, 3 side chain; linkers in the order of their positions; H or OH if unused. Non-standard residues stand in square brackets, D forms with d. Groups on a side chain read outwards from the residue. Primed or numbered codes have the meaning given here. No end group written: not given here. *: point of attachment. C20 diacid = O=C(O)CCCCCCCCCCCCCCCCCCC(=O)*; Dip = N[C@H](C(=O)O)C(c1ccccc1)c1ccccc1; γGlu = O=C(O)[C@H](CCC(=O)[*:2])N[*:1]; Stearoyl = CCCCCCCCCCCCCCCCCC(=O)*; αMeF = C[C@](N)(Cc1ccccc1)C(=O)O; Myristoyl = CCCCCCCCCCCCCC(=O)*; (PEG)2 = polyethylene glycol 2; PEG2′ = polyethylene glycol 2; AEEA = NCCOCCOCC(=O)O; Aib = CC(C)(N)C(=O)O
# number only, unit pM dropped from output

Sample records with hGluc-R EC50 (pM):
>>> observed_measurement("HSQGS[αMeF]TSDVSK[Dip]LDSKAAQD[αMeF]VE[Aib]IINT-NH2 (not fully specified (residue 17)) [Peptide 65]")
2060
>>> observed_measurement("HSQGS[αMeF]TSDVSK[Dip]LDSK([γGlu-(PEG)2-γGlu-(PEG)2-Stearoyl])AAQD[αMeF]VE[Aib]IINT-NH2 [Peptide 60]")
21.1
>>> observed_measurement("H[Aib]HGS[αMeF]TSDVSK[αMeF]LDSK([AEEA-AEEA-γGlu-γGlu-C20 diacid])AAQD[αMeF]VQ[Aib]IANT-NH2 [Peptide 25]")
1310

Any idea what hGluc-R EC50 (pM) was measured for HSQGS[αMeF]TSDVSKILDSK([PEG2′-PEG2′-γGlu-γGlu-Myristoyl])AAQD[αMeF]VQ[Aib]IINT-NH2 [Peptide 119] ? 1.7

Quick one: hGluc-R EC50 (pM) for HSQGS[αMeF]TSDVSK[αMeF]LDSKAAQD[αMeF]VQ[Aib]LEAGG-NH2 (not fully specified (residue 17)) [Peptide 80] ? 9.18
